The compounds listed here are annotated with their GI50.
test system: 786-0; assay: NCI tumour cell line growth inhibition, 48 h
Activity calls are given as the source filed them. Cut-off read from the data, not from the text of the source: active = GI50 up to about 1.1 µM and inactive = higher.

- compound: "CC(C)c1ccc(C2NC(S)=NC3=C2c2ccccc2C3=O)cc1 (stereo not given)"
  GI50: "22.5 µM (inactive)"
- compound: "Cc1nn(C(=O)Cc2ccccc2)c2c1C(c1ccc(N(C)C)cc1)SC(=N)N2 (stereo not given)"
  GI50: "> 100 µM (inactive)"
- compound: "CC(C)(C)c1ccc2c(c1)S(=O)(=O)Nc1ccccc1NS(=O)(=O)c1cc(C(C)(C)C)ccc1OCCOCCOCCO2"
  GI50: "> 100 µM (inactive)"
- compound: "CCCCCCC(=O)C/C(CCC(=O)N(Cc1ccccc1)Cc1ccccc1)=N\\NC(N)=O"
  GI50: "> 100 µM (inactive)"
- compound: "CSc1[nH]nc(N)c1C(=O)Nc1ccc(Cl)cc1"
  GI50: "52.1 µM (inactive)"

====

The compounds listed here are annotated with their GI50.
system: SK-MEL-28; test: NCI tumour cell line growth inhibition, 48 h
Activity calls are given as the source filed them. Rule as the data show it: active = GI50 up to about 1.1 µM and inactive = higher.
quantityName: GI50

- compound: "CC[N+](C)(CC)CCC(O)(c1ccccc1)c1ccccc1"
  quantityName: "GI50"
  experimentalValue: "> 100 µM (inactive)"
- compound: "CC(CC(=O)O)C(C(=O)O)C(=O)O (stereo unspecified)"
  quantityName: "GI50"
  experimentalValue: "> 100 µM (inactive)"
- compound: "CNC(=S)NC1CCCCC1NC(=S)NC (stereo unspecified)"
  quantityName: "GI50"
  experimentalValue: "> 100 µM (inactive)"
- compound: "CCSc1nc(-c2ccc(OC)cc2)c(C#N)c(=O)n1C1OCC(OC(C)=O)C(OC(C)=O)C1OC(C)=O (stereo unspecified)"
  quantityName: "GI50"
  experimentalValue: "> 100 µM (inactive)"
- compound: "CN(C)CCOC(=O)c1ccc(N)cc1"
  quantityName: "GI50"
  experimentalValue: "29.1 µM (inactive)"
- compound: "Cc1cc(O)no1"
  quantityName: "GI50"
  experimentalValue: "> 100 µM (inactive)"

====

tested on: NCI/ADR-RES; test: NCI tumour cell line growth inhibition, 48 h
Active and inactive are the calls of the source. Rule as the data show it: active = GI50 up to about 1.1 µM and inactive = higher.
The compounds listed here are annotated with their GI50.

- compound: "CSc1[nH]nc(N)c1C(=O)Nc1ccc(Cl)cc1"
  GI50: "35.2 µM (inactive)"
- compound: "CCCCCCCCCCCCOP(=O)(O)OP(=O)(O)OCC1OC(n2ccc(N)nc2=O)CC1O (stereo unspecified)"
  GI50: "> 100 µM (inactive)"
- compound: "CC(C)NC(=O)OCc1c(COC(=O)NC(C)C)n(C)c2c1ccc1ccccc12"
  GI50: "2.29 µM (inactive)"
- compound: "O=C1C2CCCC2N1Cc1ccccc1 (stereo unspecified)"
  GI50: "> 100 µM (inactive)"
- compound: "O=S1(=O)c2ccccc2N(c2ccccc2)c2nnnn21"
  GI50: "31.4 µM (inactive)"
- compound: "O=c1[nH]c(=O)c2ncn(-c3ccc([N+](=O)[O-])cn3)c2[nH]1"
  GI50: "> 100 µM (inactive)"

====

test system: 786-0; assay: NCI tumour cell line growth inhibition, 48 h
Calls of active or inactive are those of the source. Rule as the data show it: active = GI50 up to about 1.1 µM and inactive = higher.
The molecules listed here are annotated with their GI50.
quantityName: GI50

- molecule: "COc1cccc2c1CCc1cc3c(N)nc(N)nc3nc1-2"
  experimentalValue: "2.08 µM (inactive)"
- molecule: "COC(=O)c1nc(-c2ccc(Cl)c(Cl)c2)nc2ccc(Cl)cc12"
  experimentalValue: "27.5 µM (inactive)"
- molecule: "Cc1nccc2c1cnc1ccnn12"
  experimentalValue: "> 100 µM (inactive)"
- molecule: "COc1cc(/C=C2/C(=O)N(C(=O)OCc3ccccc3)C(Cc3cc(OC)c(OC)c(C)c3OC)C(=O)N2Cc2ccccc2)c(OC)c(C)c1OC (stereo unspecified)"
  experimentalValue: "> 100 µM (inactive)"
- molecule: "C/C(CC(=O)NCCc1ccccc1)=N\\NS(=O)(=O)c1ccc(C)cc1"
  experimentalValue: "> 100 µM (inactive)"
- molecule: "CCSc1nc(-c2ccc(OC)cc2)c(C#N)c(=O)n1C1OCC(OC(C)=O)C(OC(C)=O)C1OC(C)=O (stereo unspecified)"
  experimentalValue: "> 100 µM (inactive)"
- molecule: "CCCCN(CCCC)CC(O)c1cc(-c2ccc(Cl)c(Cl)c2)nc2c(Cl)cc(Cl)cc12 (stereo unspecified)"
  experimentalValue: "> 100 µM (inactive)"
- molecule: "COc1c(Br)cc(Br)c(OC)c1-c1ccc[nH]1"
  experimentalValue: "> 100 µM (inactive)"
- molecule: "CC(=O)NC(CCCCNC(=O)OCc1ccccc1)C(=O)NCc1ccccc1 (stereo unspecified)"
  experimentalValue: "> 100 µM (inactive)"
- molecule: "Cc1[nH]c(=O)nc(N/N=C/c2ccc(O)cc2)c1C(=O)Nc1ccc(O)cc1"
  experimentalValue: "> 100 µM (inactive)"
- molecule: "NC1C2C=CC(C2)C1C(=O)O (stereo unspecified)"
  experimentalValue: "> 100 µM (inactive)"
